Reference source: the supplement of paper PMC11246515

Assay: total protein half-life in vivo (active degradation + dilution); higher = more stable protein
Conditions: E. coli NCM3722 delta-hslV; growth: N-lim chemostat; doubling time 6 h

macromolecule sequence | units of measure | total protein half-life in vivo
MSNKMTGLVKWFNADKGFGFISPVDGSKDVFVHFSAIQNDNYRTLFEGQKVTFSIESGAKGPAAANVIITD | h | 0.454
MNKTITALAIMMASFAANASVLPETPVPFKSGTGAIDNDTVYIGLGSAGTAWYKLDTQAKDKKWTALAAFPGGPRDQATSAFIDGNLYVFGGIGKNSEGLTQVFNDVHKYNPKTNSWVKLMSHAPMGMAGHVTFVHNGKAYVTGGVNQNIFNGYFEDLNEAGKDSTAIDKINAHYFDKKAEDYFFNKFLLSFDPSTQQWSYAGESPWYGTAGAAVVNKGDKTWLINGEAKPGLRTDAVFELDFTGNNLKWNKLAPVSSPDGVAGGFAGISNDSLIFAGGAGFKGSRENYQNGKNYAHEGLKKSYSTDIHLWHNGKWDKSGELSQGRAYGVSLPWNNSLLIIGGETAGGKAVTDSVLITVKDNKVTVQN | h | 5.99
MTMNITSKQMEITPAIRQHVADRLAKLEKWQTHLINPHIILSKEPQGFVADATINTPNGVLVASGKHEDMYTAINELINKLERQLNKLQHKGEARRAATSVKDANFVEEVEEE [P0AD49] | h | 1.49

====

Experiment: total protein half-life in vivo (active degradation + dilution); higher = more stable protein
Settings: wild type E. coli NCM3722; growth: C-lim chemostat; doubling time 6 h

macromolecule sequence | total protein half-life in vivo (h)
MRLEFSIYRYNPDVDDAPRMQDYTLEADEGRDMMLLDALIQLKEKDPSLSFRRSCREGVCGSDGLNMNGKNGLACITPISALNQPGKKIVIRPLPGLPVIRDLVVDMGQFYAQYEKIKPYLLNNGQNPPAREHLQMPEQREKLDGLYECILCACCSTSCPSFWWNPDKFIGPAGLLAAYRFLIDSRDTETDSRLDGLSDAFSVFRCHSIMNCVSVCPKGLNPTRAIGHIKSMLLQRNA | 6.28
MSNLTGTDKSVILLMTIGEDRAAEVFKHLSQREVQTLSAAMANVTQISNKQLTDVLAEFEQEAEQFAALNINANDYLRSVLVKALGEERAASLLEDILETRDTASGIETLNFMEPQSAADLIRDEHPQIIATILVHLKRAQAADILALFDERLRHDVMLRIATFGGVQPAALAELTEVLNGLLDGQNLKRSKMGGVRTAAEIINLMKTQQEEAVITAVREFDGELAQKIIDEMFLFENLVDVDDRSIQRLLQEVDSESLLIALKGAEQPLREKFLRNMSQRAADILRDDLANRGPVRLSQVENEQKAILLIVRRLAETGEMVIGSGEDTYV [P0ABZ1] | 3.78
MRKLTALFVASTLALGAANLAHAADTTTAAPADAKPMMHHKGKFGPHQDMMFKDLNLTDAQKQQIREIMKGQRDQMKRPPLEERRAMHDIIASDTFDKVKAEAQIAKMEEQRKANMLAHMETQNKIYNILTPEQKKQFNANFEKRLTERPAAKGKMPATAE | 4.54

====

Assay: total protein half-life in vivo (active degradation + dilution); higher = more stable protein
Details: E. coli NCM3722 delta-clpP; growth: N-lim chemostat; doubling time 6 h
property name: total protein half-life in vivo

macromolecule sequence | result
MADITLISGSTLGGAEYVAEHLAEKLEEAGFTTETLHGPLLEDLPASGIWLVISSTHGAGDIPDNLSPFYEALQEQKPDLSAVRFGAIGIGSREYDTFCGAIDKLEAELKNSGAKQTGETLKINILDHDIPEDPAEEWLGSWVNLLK | 2.99 h
MTMNITSKQMEITPAIRQHVADRLAKLEKWQTHLINPHIILSKEPQGFVADATINTPNGVLVASGKHEDMYTAINELINKLERQLNKLQHKGEARRAATSVKDANFVEEVEEE [P0AD49] | 4.87 h
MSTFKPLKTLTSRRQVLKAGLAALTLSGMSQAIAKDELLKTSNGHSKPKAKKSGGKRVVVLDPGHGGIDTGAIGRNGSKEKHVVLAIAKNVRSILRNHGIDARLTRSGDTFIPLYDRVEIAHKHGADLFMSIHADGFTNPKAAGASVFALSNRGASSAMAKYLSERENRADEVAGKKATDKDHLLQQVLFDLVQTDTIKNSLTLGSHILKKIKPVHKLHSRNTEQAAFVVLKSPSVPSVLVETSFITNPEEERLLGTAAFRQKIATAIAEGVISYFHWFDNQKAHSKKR | 5.75 h
MTITDLVLILFIAALLAFAIYDQFIMPRRNGPTLLAIPLLRRGRIDSVIFVGLIVILIYNNVTNHGALITTWLLSALALMGFYIFWIRVPKIIFKQKGFFFANVWIEYSRIKAMNLSEDGVLVMQLEQRRLLIRVRNIDDLEKIYKLLVSTQ | 7.25 h
